Recorded values, source ChEMBL document CHEMBL1961873.

So I've got a bunch of molecules here, and I need their inhibition values.
# EXPERIMENTAL_TARGET: Serine/threonine-protein kinase Nek2 (Homo sapiens) (UniProt P51955);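 note: reported values are mean percent inhibition of NEK2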
# Sequence (P51955 whole entry): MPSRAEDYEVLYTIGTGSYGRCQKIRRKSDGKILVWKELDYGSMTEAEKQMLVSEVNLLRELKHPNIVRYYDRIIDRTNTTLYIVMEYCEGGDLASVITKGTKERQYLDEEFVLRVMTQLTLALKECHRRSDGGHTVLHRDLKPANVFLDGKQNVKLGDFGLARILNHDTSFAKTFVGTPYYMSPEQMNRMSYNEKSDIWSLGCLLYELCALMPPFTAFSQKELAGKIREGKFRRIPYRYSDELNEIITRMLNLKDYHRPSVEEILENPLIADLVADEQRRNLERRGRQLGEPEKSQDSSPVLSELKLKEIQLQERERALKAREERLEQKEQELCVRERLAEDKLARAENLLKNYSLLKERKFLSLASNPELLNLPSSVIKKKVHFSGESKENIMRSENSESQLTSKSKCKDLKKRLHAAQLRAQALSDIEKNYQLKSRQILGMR
# RECORDED_CONDITIONS: at 1 µM
Note: unit % is implicit; provide only the numeric part.

Req: Could you tell me which inhibition is on file for CS(=O)(=O)CCNCc1cc(-c2cc3c(Nc4ccc(OCc5cccc(F)c5)c(Cl)c4)ncnc3s2)cs1 ?
Resp: 6.31

Req: Would you kindly repeat that for Cc1ccc(NC(=O)c2ccoc2)cc1-c1ccc(C(=O)NCC2CC2)cc1 ?
Resp: 3.48

Req: Would you kindly repeat that for COc1cc(Nc2ncc3c(C)nc(-c4cccc(C(F)(F)F)c4)n3n2)cc(OC)c1OC ?
Resp: 37.5

---

So I've got a bunch of compounds here, and I need their inhibition values.
# EXPERIMENTAL_TARGET: Casein kinase I isoform gamma-3 (Homo sapiens) (UniProt Q9Y6M4);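 note: mean inhibition of CK1-g3, GSK PKIS screen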
# Sequence (Q9Y6M4 whole entry, looked up, canonical isoform): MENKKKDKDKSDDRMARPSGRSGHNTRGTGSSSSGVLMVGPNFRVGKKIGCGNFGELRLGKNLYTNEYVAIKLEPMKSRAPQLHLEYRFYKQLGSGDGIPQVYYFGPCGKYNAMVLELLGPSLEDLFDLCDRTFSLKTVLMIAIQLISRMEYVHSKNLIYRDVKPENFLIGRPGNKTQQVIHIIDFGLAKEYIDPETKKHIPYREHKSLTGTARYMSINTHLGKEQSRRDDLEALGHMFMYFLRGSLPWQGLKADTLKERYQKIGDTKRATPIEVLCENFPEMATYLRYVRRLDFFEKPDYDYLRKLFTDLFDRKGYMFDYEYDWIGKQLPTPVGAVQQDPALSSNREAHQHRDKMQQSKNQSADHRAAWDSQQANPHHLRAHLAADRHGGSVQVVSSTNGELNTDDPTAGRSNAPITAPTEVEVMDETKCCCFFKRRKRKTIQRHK
# RECORDED_CONDITIONS: at 1 µM
Note: unit % is implicit; provide only the numeric part.

Req: Could you tell me which inhibition is on file for Fc1ccc(-c2ncn(C3CCNCC3)c2-c2ccnc(Oc3ccc(Oc4ccccc4)cc3)n2)cc1 ?
Resp: 26.3

Req: Would you kindly repeat that for O=C1NC(=O)C(c2cccc(Cl)c2)=C1Nc1ccc(Cl)c(C(=O)O)c1 ?
Resp: 0.02

Req: Would you kindly repeat that for COc1ccc(-c2ccc3c(NC(=O)C4CC4)n[nH]c3n2)cc1 ?
Resp: 2.61

---

So I've got a bunch of compounds here, and I need their inhibition values.
# Tested on: Tyrosine-protein kinase ABL1 (Homo sapiens), P00519 [M351T]
# RECORDED_CONDITIONS: at 0.1 µM
Note: unit % is implicit; provide only the numeric part.

Req: Could you tell me which inhibition is on file for COc1cc(Nc2ncc(-c3ccccc3)o2)cc(OC)c1OC ?
Resp: 14.3

Req: Would you kindly repeat that for CS(=O)(=O)CCNCc1ccc(-c2ccc3ncnc(Nc4ccc(OCc5ccccc5)c(Br)c4)c3c2)o1 ?
Resp: 0.99

Req: Would you kindly repeat that for NC(=O)c1cc(-c2ccncc2)cc(-c2ccccc2)c1N ?
Resp: 5.03

Req: Would you kindly repeat that for COc1cc(N2CCN(C(C)C)CC2)ccc1Nc1nc(Nc2ccc(F)cc2C(=O)NC[C@@H](O)CO)c2cc[nH]c2n1 ?
Resp: 3.03

Req: Would you kindly repeat that for Cc1ccc(NC(=O)c2ccoc2)cc1-c1ccc(C(=O)NCC2CC2)cc1 ?
Resp: 0.71

Req: Would you kindly repeat that for C[C@@H](Oc1cc(-n2cnc3ccc(OCC4CCN(C)CC4)cc32)sc1C(N)=O)c1ccccc1Cl ?
Resp: -0.56

Req: Would you kindly repeat that for CN(c1ccc(NC(=O)Nc2c(Cl)cccc2Cl)cc1)c1ccnc(Nc2cccc(CS(C)(=O)=O)c2)n1 ?
Resp: 46.9

Req: Would you kindly repeat that for NS(=O)(=O)c1ccc(Nc2cc(-c3ccc(O)c(F)c3)n[nH]2)cc1 ?
Resp: 4.46

Req: Would you kindly repeat that for c1ccc(-c2n[nH]cc2-c2ccnc(-c3ccc(OCCN4CCOCC4)cc3)c2)nc1 ?
Resp: 22.1

Req: Would you kindly repeat that for C[C@@H](Oc1cc(-n2cnc3ccc(OC4CCN(C)CC4)cc32)sc1C(N)=O)c1ccccc1Cl ?
Resp: 0.86

Req: Would you kindly repeat that for CNC(=O)c1cncc(/C=C/c2c(C)cccc2C)c1 ?
Resp: 16.9

Req: Would you kindly repeat that for Cc1nnc(-c2ccc(C)c(-c3ccc(C(=O)NCc4ccc(Cl)cc4)cc3)c2)o1 ?
Resp: -1.14

Req: Would you kindly repeat that for CCN(CC)Cc1ccc(Nc2nccc(-c3cnn4ncccc34)n2)cc1 ?
Resp: 4.62

Req: Would you kindly repeat that for C/C(Nc1ccc(S(N)(=O)=O)cc1)=C1/C(=O)Nc2ccccc21 ?
Resp: 3.92

Req: Would you kindly repeat that for COc1cccc(/C=N/Nc2ncnc3c2cnn3-c2cccc(OC)c2)c1 ?
Resp: 7.51

Req: Would you kindly repeat that for NCc1ccc(-n2c(-c3nonc3N)nc3cnccc32)cc1 ?
Resp: 3.87

Req: Would you kindly repeat that for Clc1ccc(CNc2nccc(-c3cnn4ncccc34)n2)cc1 ?
Resp: 4.62

Req: Would you kindly repeat that for COc1cc(Nc2ncc3c(C)nc(-c4cccc(C(F)(F)F)c4)n3n2)cc(OC)c1OC ?
Resp: 1.36

Req: Would you kindly repeat that for COc1cc2ncn(-c3cc(OCc4ccccc4C(F)(F)F)c(C(C)=O)s3)c2cc1OC ?
Resp: 1.37

Req: Would you kindly repeat that for Cc1ccc(C(=O)NC2CCC2)cc1-c1ccc(C(=O)NCC2CC2)cc1 ?
Resp: -0.23

Req: Would you kindly repeat that for O=C(Nc1n[nH]c2nc(-c3ccc(O)cc3)c(Br)cc12)C1CC1 ?
Resp: 37.4

Req: Would you kindly repeat that for COC(=O)Nc1nc2ccc(Sc3ccc(NC(=O)Nc4cc(C(F)(F)F)ccc4F)cc3)cc2[nH]1 ?
Resp: 33.2

Req: Would you kindly repeat that for O=C(Nc1n[nH]c2cc(-c3cc(F)ccc3F)ccc12)C1CC1 ?
Resp: 13

Req: Would you kindly repeat that for O=C(Nc1ccc(Oc2ccc3[nH]c(NC(=O)c4ccccc4)nc3c2)cc1)Nc1cc(C(F)(F)F)ccc1F ?
Resp: 44.6

Req: Would you kindly repeat that for FC(F)(F)c1cccc(Nc2nccc(-c3cnn4nc(-c5ccccc5)ccc34)n2)c1 ?
Resp: -1.63

Req: Would you kindly repeat that for CCc1ccc(Oc2nccc(-c3c(-c4ccc(F)cc4)ncn3C3CCNCC3)n2)cc1 ?
Resp: 0.72

Req: Would you kindly repeat that for O=C(NCC1CC1)c1ccc(-c2cccc(C(=O)NC3CC3)c2)cc1 ?
Resp: 2.14

Req: Would you kindly repeat that for O=C1Nc2ccccc2/C1=C/Nc1ccc(-n2cncn2)cc1 ?
Resp: 1.55

Req: Would you kindly repeat that for CN(C)CCCNc1nccc(-c2c(-c3ccc(F)cc3)nn3cc(C(F)(F)F)ccc23)n1 ?
Resp: 4.09

---

# EXPERIMENTAL_TARGET: Cyclin-dependent kinase 1 (Homo sapiens);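 note: enzyme assay on the CDK1/cyclin B complex, reported as mean percent inhibition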
# RECORDED_CONDITIONS: at 0.1 µM
So I've got a bunch of molecules here, and I need their inhibition values.
Note: unit % is implicit; provide only the numeric part.

Req: Query inhibition on Cyclin-dependent kinase 1 (Homo sapiens) for c1ccc(-c2n[nH]cc2-c2ccnc(-c3ccc(OCCN4CCOCC4)cc3)c2)nc1
Resp: 5.08

Req: Would you kindly repeat that for C[C@@H](Oc1cc(-n2cnc3ccc(OCC4CCN(C)CC4)cc32)sc1C(N)=O)c1ccccc1Cl ?
Resp: 1.74

Req: Would you kindly repeat that for NC(=O)c1cc(-c2ccc(F)cc2)cc(-c2ccncc2)c1N ?
Resp: 0.65

Req: Would you kindly repeat that for O=C(Nc1n[nH]c2nc(-c3ccco3)ccc12)C1CC1 ?
Resp: -0.24

Req: Would you kindly repeat that for CS(=O)(=O)CCNCc1cc(-c2cc3c(Nc4ccc(OCc5cccc(F)c5)c(Cl)c4)ncnc3s2)cs1 ?
Resp: 2.55

Req: Would you kindly repeat that for Fc1ccc(-c2nc3n(c2-c2ccncc2)CCS3)cc1 ?
Resp: -2.26

Req: Would you kindly repeat that for c1ccc(Oc2ccc(Nc3ncc(-c4ccccc4)o3)cc2)cc1 ?
Resp: 0.18

Req: Would you kindly repeat that for CCS(=O)(=O)c1ccc(OC)c(Nc2ncc(-c3cccc(-c4ccccc4F)c3)o2)c1 ?
Resp: 0.67

Req: Would you kindly repeat that for NS(=O)(=O)c1ccc(N/N=C2\C(=O)Nc3ccc(C(=O)NCCCn4ccnc4)cc32)cc1 ?
Resp: 20.5

Req: Would you kindly repeat that for CN(C)CCOc1ccc(-c2cc(-c3ccc4c(c3)CCC4=NO)c(-c3ccncc3)o2)cc1 ?
Resp: 0.53

Req: Would you kindly repeat that for C/C(Nc1ccc(S(N)(=O)=O)cc1)=C1/C(=O)Nc2ccccc21 ?
Resp: 0.68

Req: Would you kindly repeat that for CCS(=O)(=O)c1ccc(OC)c(Nc2ncc(-c3ccccc3Cl)o2)c1 ?
Resp: 0.87

Req: Would you kindly repeat that for Fc1ccc(-c2ncn(C3CCNCC3)c2-c2ccnc(Oc3ccc4c(c3)OCO4)n2)cc1 ?
Resp: 0.2

Req: Would you kindly repeat that for CNC(=O)c1cncc(/C=C/c2c(C)cccc2C)c1 ?
Resp: -3.38

Req: Would you kindly repeat that for Fc1ccc(-c2ncn(C3CCNCC3)c2-c2ccnc(Oc3ccc(Oc4ccccc4)cc3)n2)cc1 ?
Resp: 1.88

---

# EXPERIMENTAL_TARGET: Tyrosine-protein kinase receptor UFO (Homo sapiens)
# RECORDED_CONDITIONS: at 1 µM
# Description: GSK_PKIS: AXL mean inhibition at 1 uM [Nanosyn]
So I've got a bunch of compounds here, and I need their inhibition values.
Note: unit % is implicit; provide only the numeric part.

Req: Could you tell me which inhibition is on file for Fc1ccc(-c2ncn(C3CCNCC3)c2-c2ccnc(Oc3ccc(Oc4ccccc4)cc3)n2)cc1 ?
Resp: -7.71

Req: Would you kindly repeat that for CCN(CC)Cc1ccc(Nc2nccc(-c3cnn4ncccc34)n2)cc1 ?
Resp: 16.3

Req: Would you kindly repeat that for COc1ccc2cc(-c3c(-c4ccncc4)nc(-c4ccc([S+](C)[O-])cc4C)n3C)ccc2c1 (configuration not stated) ?
Resp: 1.82

Req: Would you kindly repeat that for Fc1ccc(-c2ncn(CCCN3CCOCC3)c2-c2ccncc2)cc1 ?
Resp: 1.84

Req: Would you kindly repeat that for Cc1ccc(NC(=O)c2ccoc2)cc1-c1ccc(C(=O)NCC2CC2)cc1 ?
Resp: -2.93

Req: Would you kindly repeat that for Cc1ccc(C(=O)NC(C)C)cc1-c1ccc(C(=O)NCC2CC2)cc1 ?
Resp: 4.77

Req: Would you kindly repeat that for COc1cc(C)c(N(C)C(=O)CN(C)C)cc1Nc1nc(Nc2cccc(F)c2C(N)=O)c2cc[nH]c2n1 ?
Resp: 3.71
